# targetSystem: glutathione-S-transferase (GST) tagged LXRbeta LBD (ligand binding domain) (Homo sapiens)
# procedureSummary: LanthaScreen TR-FRET Liver X Receptor Coactivator Assay, LXR beta-LBD
# conditionSet: potency (Inflection Point) of co-activator recruitment, TR-FRET; read-out: LXR beta IP
pEC50: −log10 of the molar value.
measuredMetric: pEC50

Can you look up the measured pEC50 of CCN(C)C(=O)c1ccc(-c2cnc(N3CCN(C(=O)OC(C)(C)C)CC3)c(C#N)c2)cc1Cl for me?
7.06

# iterate: CC(C)(C)OC(=O)N1CCN(c2ncc(-c3ccc(C(=O)N(CCO)Cc4ccccc4)c(Cl)c3)cc2C#N)CC1
5.93

Entry to check: CN(C)C(=O)c1ccc(-c2cnc(N3CCN(S(=O)(=O)c4ccccc4)CC3)c(C#N)c2)cc1Cl
6.84

// next record CN(C)C(=O)c1ccc(-c2cnc(N3CCN(C(=O)OCc4cccc(Cl)c4)CC3)c(C#N)c2)cc1Cl
7.17

Try this molecule too: CC(C)(C)OC(=O)N1CCN(c2ncc(-c3ccc(C(=O)N4CCC4)c(Cl)c3)cc2C#N)CC1
5.82

a. CN(C)C(=O)c1ccc(-c2ccc(N3CCN(C(=O)c4ccccc4C(F)(F)F)CC3)cc2)cc1Cl
b. CN(C)C(=O)c1ccc(-c2cnc(N3CCN(C(=O)OCc4ccccc4)CC3)c(C#N)c2)cc1Cl
Which has the smaller recorded pEC50, a or b ? Identify your selection by its label.
a

P. CN(C)C(=O)c1ccc(-c2cnc(N3CCN(C(=O)OCc4ccccc4C(F)(F)F)CC3)c(C#N)c2)cc1Cl
Q. CN(C)C(=O)c1ccc(-c2cnc(N3CCN(S(=O)(=O)c4ccccc4OC(F)(F)F)CC3)c(C#N)c2)cc1Cl
Of the two listed items, P and Q , which carries the larger pEC50 figure? Let me know the label of the one you choose.
Q

P. COc1ccc2nc(CCN(C)C(=O)c3ccc(-c4cnc(N5CCN(C(=O)OC(C)(C)C)CC5)c(C#N)c4)cc3Cl)[nH]c2c1
Q. Cc1nc(CCN(C)C(=O)c2ccc(-c3cnc(N4CCN(C(=O)OC(C)(C)C)CC4)c(C#N)c3)cc2Cl)no1
Just tell me: smaller pEC50 value, P or Q ? // output: label of the selected item
P

---

# targetSystem: glutathione-S-transferase (GST) tagged LXRbeta LBD (ligand binding domain) (Homo sapiens, UniProt P55055)
# Construct: purchased Invitrogen pv4658.pps
# Sequence (P55055 222-460 limits assumed): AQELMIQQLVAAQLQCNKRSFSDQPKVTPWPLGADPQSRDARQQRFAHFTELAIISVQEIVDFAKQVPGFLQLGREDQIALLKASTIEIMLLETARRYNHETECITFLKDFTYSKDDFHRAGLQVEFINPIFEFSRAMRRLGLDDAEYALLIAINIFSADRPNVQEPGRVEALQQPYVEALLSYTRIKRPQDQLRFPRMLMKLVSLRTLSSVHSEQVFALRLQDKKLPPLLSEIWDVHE
# procedureSummary: LanthaScreen TR-FRET Liver X Receptor Coactivator Assay, LXR beta-LBD
# Format: biochemical
# conditionSet: efficacy in relation to reference dual agonist T1317; read-out: LXR beta activity at max dose (%) (Emax)
measuredMetric: Emax (%)

Worked cases, answers included:
What value of measured Emax is listed for CN(C)C(=O)c1ccc(-c2cnc(N3CC4CCC3CN4C(=O)OC(C)(C)C)c(C#N)c2)cc1Cl (stereo not shown) ?
68

Now this one: CN(C)C(=O)c1ccc(-c2cnc(N3C4CCC3C3CCC4N3C(=O)OC(C)(C)C)c(C#N)c2)cc1Cl
57

I. CC(C)(C)OC(=O)N1CCN(c2ncc(-c3ccc(C(=O)N4CCCCC4)c(Cl)c3)cc2C#N)CC1
II. COc1ccccc1COC(=O)N1CCN(c2ncc(-c3ccc(C(=O)N(C)C)c(Cl)c3)cc2C#N)CC1
# returns the entry with the larger Emax; inputs I and II # reply format: chosen label
II
